Cited source: patent US8436205B2

- Tested on: isolated mouse hearts
- run.description: Effect on isolated hearts according to the Langendorff method (Lgdff)
reported.metric: EC50 (nM)

compound: COCC(C)(COC)CN(CCCN(C)CC[C@@]1(OC(=O)C(C)C)CCc2cc(F)ccc2[C@@H]1C(C)C)CC(F)F [Example 6]
reported.metric: EC50
assay.value: 9
//
compound: COCC(C)(COC)CN(CCF)CCCN(C)CC[C@@]1(OC(=O)CC(F)(F)F)CCc2cc(F)ccc2[C@@H]1C(C)C [Example 3]
reported.metric: EC50
assay.value: 7
//
compound: COCC(C)(COC)CN(CCCN(C)CC[C@@]1(OC(=O)CC(F)(F)F)CCc2cc(F)ccc2[C@@H]1C(C)C)CC(F)(F)F [Example 10]
reported.metric: EC50
assay.value: 9
